# MEASURED_TARGET: Cytochrome P450 1A2 (Homo sapiens) (UniProt P05177)
# Sequence (P05177 whole entry, looked up): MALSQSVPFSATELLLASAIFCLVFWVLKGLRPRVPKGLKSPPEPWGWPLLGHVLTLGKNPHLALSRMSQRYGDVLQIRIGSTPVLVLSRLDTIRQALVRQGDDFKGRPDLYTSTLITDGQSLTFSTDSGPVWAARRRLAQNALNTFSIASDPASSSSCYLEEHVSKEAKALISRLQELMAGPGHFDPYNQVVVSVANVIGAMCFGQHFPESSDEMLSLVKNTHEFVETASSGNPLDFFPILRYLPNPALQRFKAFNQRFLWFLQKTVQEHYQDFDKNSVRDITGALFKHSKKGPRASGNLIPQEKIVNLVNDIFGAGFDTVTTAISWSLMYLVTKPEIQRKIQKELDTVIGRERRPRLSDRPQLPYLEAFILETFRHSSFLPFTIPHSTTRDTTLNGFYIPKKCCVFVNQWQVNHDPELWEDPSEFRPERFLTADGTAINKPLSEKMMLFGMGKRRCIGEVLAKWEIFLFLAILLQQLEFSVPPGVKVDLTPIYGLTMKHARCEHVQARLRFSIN
# PROTOCOL_TEXT: Cytochrome P450 Family 1 Subfamily A Member 2 (CYP1A2) small molecule antagonists: luciferase reporter qHTS assay (AID 1671199); further: nearly all actives have a fitted effect of over 50% in size
# CONDITIONS_USED: P450-Glo CYP1A2 enzyme, luciferin luminescence, 1 h; series mostly up to 115 µM
Results filed as inconclusive are left out. Active and inactive are the calls of the source. The call rests on the fitted dose curve; in most records, active means well fitted inhibition curve with a large enough effect in the repeat runs; inconclusive means weak or mixed curves; inactive means no such curve, though single readings can be large or run the other way.
Classes used: active, inactive

INSERT INTO measurements (compound, category) VALUES
  ('OC(CCN1CCCCC1)(c1ccccc1)C1CCCCC1 (stereo not drawn)', 'inactive'),
  ('CCCCCOC(=O)c1ccc(O)cc1', 'active'),
  ('Nc1nc(CC(=O)O)cs1', 'inactive'),
  ('CN(C(=O)CCCOc1ccc2[nH]c(=O)ccc2c1)C1CCCCC1', 'inactive'),
  ('NC(N)=N/N=C/c1c(Cl)cccc1Cl', 'active'),
  ('O=C(Nc1ccccc1)OCC(CN1CCCCC1)OC(=O)Nc1ccccc1 (stereo not drawn)', 'inactive'),
  ('CC(=O)O[C@H]1C[C@@H]2CC[C@@H]3[C@H](CC[C@@]4(C)[C@H]3C[C@H]([N+]3(C)CCCCC3)[C@@H]4OC(C)=O)[C@@]2(C)C[C@@H]1N1CCCCC1', 'inactive'),
  ('c1ccc(-c2nc[nH]c2-c2ccccc2)cc1', 'active'),
  ('CCCCCCOC(=O)CCC', 'inactive'),
  ('CC1CCc2cc(F)cc3c(=O)c(C(=O)O)cn1c23 (stereo not drawn)', 'inactive'),
  ('C=C(C)C(=O)OC(C)C', 'inactive'),
  ('C=C(C)C(=O)OCCOc1ccccc1', 'active'),
  ('Cc1cc(O)ccc1N', 'active');

----------
# PROTOCOL_TEXT: qHTS assay for identifying genotoxic compounds that show differential cytotoxicity against isogenic chicken DT40 cell lines with known DNA damage response pathways - Rad54/Ku70 mutant cell line (AID 743015); further: nearly all actives have a fitted effect of over 60% in size
# CONDITIONS_USED: DT40 Rad54/Ku70 mutant viability, CellTiter-Glo, 40 h; series mostly up to 66.8 µM
Inconclusive results are not listed. Activity calls are given as the source filed them. Calls follow the shape of the dose curve; as a rule, active = well fitted cell-killing curve with a large enough effect in the repeat runs; inconclusive = weak or mixed curves; inactive = no such curve, though single readings can be large or run the other way.
Classes used: active, inactive

INSERT INTO assay_data (test_smiles, category) VALUES
  ('CC(=O)O[C@H]1C[C@@H]2CC[C@@H]3[C@H](CC[C@@]4(C)[C@H]3C[C@H]([N+]3(C)CCCCC3)[C@@H]4OC(C)=O)[C@@]2(C)C[C@@H]1N1CCCCC1', 'inactive'),
  ('CC1=CC(=O)/C(=C(/C)O)C(=O)O1', 'inactive'),
  ('Cc1nc2ccccc2n1Cc1ccc(Cl)cc1', 'active'),
  ('CN1CCC(=C2c3ccccc3C=Cc3ccccc32)CC1', 'active'),
  ('CC(C)CC=O', 'inactive'),
  ('N#Cc1c(F)cccc1F', 'inactive'),
  ('COc1ccccc1OC(=O)Oc1ccccc1OC', 'inactive'),
  ('CCCCCCCCCCCCCCCCCBr', 'inactive'),
  ('CCOc1cc(OCC)c(C(=O)CCC(=O)O)cc1OCC', 'inactive'),
  ('CCCOc1ccc2nc(NC(=O)OC)[nH]c2c1', 'active'),
  ('CN1CCN(C2=Nc3ccccc3Sc3ccc(Cl)cc32)CC1', 'active'),
  ('Cc1c(Cn2ccnc2)c2ccccc2n1CCC(=O)O', 'inactive');
